The reported measurements were obtained from PubChem BioAssay AID1963449.

Let's look at some compounds and their measured viability, T/C.
Test system: 596521-263-R-J1-PDC complex spheroid growth
Experiment: Anticancer human tumor 596521-263-R-J1-PDC patient-derived soft tissue sarcoma cell line growth inhibition [Asc]
Conditions: second compound 3 µM; first compound 0.316 µM; stronger effect = lower value
Source text: Multicellular complex tumor spheroid response to apoptosis pathway targeting inhibitors Alrizomadlin, Pelcitoclax, and Dasminapant in combination with a variety of drugs and investigational agents in selected tumor cell lines […] Compounds. […] If the clinical Cmax for an agent had not been determined, the highest concentration tested was 10 microM. […]

compound	viability, T/C
C=C(F)C(=O)N1CCN(c2nc(OCC3CCCN3C)nc3c2CCN(c2cccc4cccc(Cl)c24)C3)CC1CC#N (stereo not drawn) + CCN1C(C(=O)NC23CCC(C(=O)O)(CC2)CC3)C(c2cccc(Cl)c2F)C2(C(=O)Nc3cc(Cl)ccc32)C12CCCCC2	102%
CCN1CCN(Cc2ccc(Nc3ncc(F)c(-c4cc(F)c5nc(C)n(C(C)C)c5c4)n3)nc2)CC1 + CCN1C(C(=O)NC23CCC(C(=O)O)(CC2)CC3)C(c2cccc(Cl)c2F)C2(C(=O)Nc3cc(Cl)ccc32)C12CCCCC2	98.5%
COc1c(OCCCN2CCOCC2)ccc2c3n(c(=NC(=O)c4cnc(N)nc4)nc12)CCN3 + CCN1C(C(=O)NC23CCC(C(=O)O)(CC2)CC3)C(c2cccc(Cl)c2F)C2(C(=O)Nc3cc(Cl)ccc32)C12CCCCC2	40.1%
O=C(c1ccc(F)c(F)c1Nc1ccc(I)cc1F)N1CC(O)([C@@H]2CCCCN2)C1 + CCN1C(C(=O)NC23CCC(C(=O)O)(CC2)CC3)C(c2cccc(Cl)c2F)C2(C(=O)Nc3cc(Cl)ccc32)C12CCCCC2	53.4%
C#Cc1c(F)ccc2cc(O)cc(-c3ncc4c(N5CC6CCC(C5)N6)nc(OCC56CCCN5CC(F)C6)nc4c3F)c12 (stereo not drawn) + CCN1C(C(=O)NC23CCC(C(=O)O)(CC2)CC3)C(c2cccc(Cl)c2F)C2(C(=O)Nc3cc(Cl)ccc32)C12CCCCC2	85.1%
CNC(C)C(=O)NC1CN(S(=O)(=O)c2cccc(S(=O)(=O)N3CCC4CCC(C(=O)NC(c5ccccc5)c5ccccc5)N4C(=O)C(NC(=O)C(C)NC)C3)c2)CCC2CCC(C(=O)NC(c3ccccc3)c3ccccc3)N2C1=O (stereo not drawn) + CCN1C(C(=O)NC23CCC(C(=O)O)(CC2)CC3)C(c2cccc(Cl)c2F)C2(C(=O)Nc3cc(Cl)ccc32)C12CCCCC2	69.3%
C=CC(=O)N1CCN(c2nc(=O)n(-c3c(C)ccnc3C(C)C)c3nc(-c4c(O)cccc4F)c(F)cc23)C(C)C1 (stereo not drawn) + CCN1C(C(=O)NC23CCC(C(=O)O)(CC2)CC3)C(c2cccc(Cl)c2F)C2(C(=O)Nc3cc(Cl)ccc32)C12CCCCC2	91.6%
O=C(c1cc(Cc2n[nH]c(=O)c3ccccc23)ccc1F)N1CCN(C(=O)C2CC2)CC1 + CCN1C(C(=O)NC23CCC(C(=O)O)(CC2)CC3)C(c2cccc(Cl)c2F)C2(C(=O)Nc3cc(Cl)ccc32)C12CCCCC2	74.2%

###

tested on: 596521-263-R-J1-PDC complex spheroid growth; assay: Anticancer human tumor 596521-263-R-J1-PDC cell line growth inhibition [Asc]; conditions: curve of first compound; second compound 0.949 µM;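 further: spheroids exposed to compounds for 7 days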
pIC50: −log10 of the molar value.

compound	modifier sign	pIC50
C=CC(=O)N1CCN(c2nc(=O)n(-c3c(C)ccnc3C(C)C)c3nc(-c4c(O)cccc4F)c(F)cc23)C(C)C1 (stereo not given) + CCN1C(C(=O)NC23CCC(C(=O)O)(CC2)CC3)C(c2cccc(Cl)c2F)C2(C(=O)Nc3cc(Cl)ccc32)C12CCCCC2	<	5.00
O=C(c1ccc(F)c(F)c1Nc1ccc(I)cc1F)N1CC(O)([C@@H]2CCCCN2)C1 + CCN1C(C(=O)NC23CCC(C(=O)O)(CC2)CC3)C(c2cccc(Cl)c2F)C2(C(=O)Nc3cc(Cl)ccc32)C12CCCCC2	=	6.45
NC1CCC(NC2CC2c2ccccc2)CC1 (stereo not given) + CCN1C(C(=O)NC23CCC(C(=O)O)(CC2)CC3)C(c2cccc(Cl)c2F)C2(C(=O)Nc3cc(Cl)ccc32)C12CCCCC2	<	7.00
C=C(F)C(=O)N1CCN(c2nc(OCC3CCCN3C)nc3c2CCN(c2cccc4cccc(Cl)c24)C3)CC1CC#N (stereo not given) + CCN1C(C(=O)NC23CCC(C(=O)O)(CC2)CC3)C(c2cccc(Cl)c2F)C2(C(=O)Nc3cc(Cl)ccc32)C12CCCCC2	=	5.33
Cn1ncnc1[C@H]1c2n[nH]c(=O)c3cc(F)cc(c23)N[C@@H]1c1ccc(F)cc1 + CCN1C(C(=O)NC23CCC(C(=O)O)(CC2)CC3)C(c2cccc(Cl)c2F)C2(C(=O)Nc3cc(Cl)ccc32)C12CCCCC2	<	7.00
